- ASSAY_SYSTEM: T1, Biotinylated human TNFRI (human, UniProt P19438 30-211, limits assumed, biotinylated (approx 1 biotin per molecule))
- T1 sequence (looked up): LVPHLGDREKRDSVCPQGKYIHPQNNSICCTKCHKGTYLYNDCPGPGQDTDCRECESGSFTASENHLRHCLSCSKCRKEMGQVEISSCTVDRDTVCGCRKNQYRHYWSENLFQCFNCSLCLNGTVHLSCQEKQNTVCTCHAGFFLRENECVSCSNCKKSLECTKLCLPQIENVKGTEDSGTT
- PROCEDURE_SUMMARY: SPR (Biacore), biotinylated human TNFRI on streptavidin chip, dAb injected
VALUE_KIND: koff (s⁻¹)
Answers are plain numbers, in s⁻¹.

1) TAR210-27 5K MAL PEG (other, 5K MAL-PEG on the C-terminal Cys (Ser120cys), For the limits of the entry see m36) VH: ASTEVQLLESGGGLVQPGGSLRLSCAASGFTFEWYWMGWVRQAPGKGLEWVSAISGSGGSTYYADSVKGRFTISRDNSKNTLYLQMNSLRAEDAAVYYCAKVKLGGGPNFGYRGQGTLVTVSC: 0.011
2) TAR2-10-27 Ser120cys blocked (other, C-terminal Cys (Ser120cys) blocked with N-ethylmaleimide, TAR2-10-27 cys; the entry already carries Ser120cys) VH: ASTEVQLLESGGGLVQPGGSLRLSCAASGFTFEWYWMGWVRQAPGKGLEWVSAISGSGGSTYYADSVKGRFTISRDNSKNTLYLQMNSLRAEDAAVYYCAKVKLGGGPNFGYRGQGTLVTVSC: 0.00596
3) TAR210-27 2 × 20K MAL PEG (other, 2 × 20K (40K branched) MAL-PEG on the C-terminal Cys (Ser120cys), For the limits of the entry see m36; also called 40K PEGylated monomer (TAR2-10-27)) VH: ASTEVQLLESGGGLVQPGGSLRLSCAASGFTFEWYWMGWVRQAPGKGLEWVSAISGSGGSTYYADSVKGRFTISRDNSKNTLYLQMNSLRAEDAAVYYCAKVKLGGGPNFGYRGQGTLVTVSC: 0.00517

List the reported koff of each binder below.
1. TAR2-10-27 Ser120cys 30K MAL PEG (other, 30K MAL-PEG on the C-terminal Cys (Ser120cys), TAR2-10-27 cys; For the limits of the entry see m36; also called TAR210-27 30K MAL PEG) VH: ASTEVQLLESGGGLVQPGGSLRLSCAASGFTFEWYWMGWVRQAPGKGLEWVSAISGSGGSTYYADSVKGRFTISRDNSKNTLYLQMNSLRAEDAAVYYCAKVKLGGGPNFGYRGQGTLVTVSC
2. TAR210-27 20K MAL PEG (other, 20K MAL-PEG on the C-terminal Cys (Ser120cys), For the limits of the entry see m36) VH: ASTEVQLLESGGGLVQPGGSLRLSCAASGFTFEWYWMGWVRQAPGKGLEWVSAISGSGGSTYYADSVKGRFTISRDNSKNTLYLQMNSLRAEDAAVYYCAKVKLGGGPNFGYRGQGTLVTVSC
3. TAR210-27 2 × 10K MAL PEG (other, 2 × 10K MAL-PEG on the C-terminal Cys (Ser120cys), For the limits of the entry see m36) VH: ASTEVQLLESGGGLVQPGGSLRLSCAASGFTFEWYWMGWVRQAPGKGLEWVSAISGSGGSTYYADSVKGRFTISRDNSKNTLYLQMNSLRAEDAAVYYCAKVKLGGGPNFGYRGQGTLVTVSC

Completion:
0.00769
0.012
0.00954
